The measured values listed here are drawn from patent US20260242478A1.

# MEASUREMENT TARGET: T1, Anti-PSMA Fab (SEQ ID NOs: 19, 20)
# T1 construct: Biotinylated and captured on neutravidin coated plates in the phage ELISA; also called 006 PSMA Fab
# ASSAY PROCEDURE: phage binding ELISA on captured anti-PSMA Fab; PSMA antigen as competitor
The entries below come with measured Anti-PSMA Fab signal in the presence of PSMA values attached.
MEASURED ENDPOINT: Anti-PSMA Fab signal in the presence of PSMA

• LDNWCKPSWMCTGF [Phage-1777 (clonal phage displaying the peptide of SEQ ID NO: 2073)] = 0.0633
• LDKWCVPKWMCSGL [Phage-1782 (clonal phage displaying the peptide of SEQ ID NO: 2078)] = 0.0742
• LEKLCKPAWMCVNF [Phage-1788 (clonal phage displaying the peptide of SEQ ID NO: 2084)] = 0.107
• EFKWCIPSWMCHET [Phage-1778 (clonal phage displaying the peptide of SEQ ID NO: 2074)] = 0.0857
• IPKSCIPSWMCTGF [Phage-1775 (clonal phage displaying the peptide of SEQ ID NO: 2071)] = 0.101
